Target: T1, P5A-bS
T1 chain: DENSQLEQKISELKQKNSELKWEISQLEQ
Test: two-hybrid library CCNG1;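 also: natural log of median RNA to DNA barcode read ratio; higher means stronger binding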
Assay Readout: interaction score
Field format: numeric only.

Illustrative cases are given below, each with its answer.
> print(dat)
                                    binder  readout.value
1  DKNSQLKQKISELKQKISELKWENSQLEQ [P12A-bS]          -2.21
2   DKISQLKQKNSELKQKNSELKWKISQLKQ [P2A-bS]         -0.924
3   DKISQLKQKISELKQENSELEWENSQLEQ [P4A-bS]         -0.436
4   DEISQLEQENSELEQENSELEWEISQLEQ [P1A-bS]         -0.939
5   DENSQLEQKISELKQKNSELKWEISQLEQ [P5A-bS]         -0.799

Task: Request the reported interaction score associated with DEISQLEQEISELEQKNSELKWKNSQLKQ [P3A-bS]
Output: -0.938

Task: Try this binder too: DENSQLEQEISELEQEISELEWKNSQLKQ [P11A-bS]
Output: -0.458

Task: Repeat for the following binder: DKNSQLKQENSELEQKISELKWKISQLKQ [P10A-bS]
Output: -1.76
